assay: Toxicity liver stage against HepG2, at 10uM; format: cell-based; design: test concentration 10 uM, cell line HepG2-A16-CD81EGFP; conditions: human, HepG2-A16-CD81EGFP cells; read-out: INHIBITION
Please provide measured cytotoxicity at 10 µM for the entries that follow.
Numbers only; they are read as %.

Task: Indicate the recorded cytotoxicity at 10 µM value for this compound: CC(C)C(Sc1nnc(NC2CC2)s1)C(=O)NCc1cccnc1 (centres undefined)
Output: -5.49

Task: Indicate the recorded cytotoxicity at 10 µM value for this compound: Cc1ccc(-c2c[nH]c([C@@H]3COCCN3Cc3ncc[nH]3)n2)cc1
Output: 0.835

Task: Indicate the recorded cytotoxicity at 10 µM value for this compound: CN(CCCNC(=O)c1ccccc1F)CC(F)(F)F
Output: -9.25

Task: Indicate the recorded cytotoxicity at 10 µM value for this compound: CCS(=O)(=O)NCc1cccnc1N1CCCC(O)C1 (centres undefined)
Output: 1.91

Task: Indicate the recorded cytotoxicity at 10 µM value for this compound: Cc1cc(C)nc(C2CCN(C(=O)c3cnc(N(C)C)nc3)C2)n1 (centres undefined)
Output: -18.1

Task: Indicate the recorded cytotoxicity at 10 µM value for this compound: O=C(Nc1ccccc1F)N1CCN(Cc2noc(C3CC3)n2)CC1
Output: -0.144

Task: Indicate the recorded cytotoxicity at 10 µM value for this compound: CC(C)c1nnc2n1CCN(CCCS(=O)(=O)c1ccccc1)C2
Output: -12.3

Task: Indicate the recorded cytotoxicity at 10 µM value for this compound: CN(C)CCN1C(=O)CCC12CCCN(C(=O)c1cccnc1)CC2 (centres undefined)
Output: -6.78

Task: Indicate the recorded cytotoxicity at 10 µM value for this compound: Cc1cnn(C2CN(CC(=O)NCCc3ccsc3)C2)c1
Output: -3.86

Task: Indicate the recorded cytotoxicity at 10 µM value for this compound: O=C(NCC1CCCO1)Nc1nnc(C(F)(F)F)s1 (centres undefined)
Output: 1.72

Task: Indicate the recorded cytotoxicity at 10 µM value for this compound: Fc1ccc(CN2C[C@@H](OCc3ccccn3)[C@H]3COC[C@H]32)cc1
Output: -98.9

Task: Indicate the recorded cytotoxicity at 10 µM value for this compound: COc1cccc(COCC(=O)N2CCCC(n3cccn3)C2)c1 (centres undefined)
Output: -0.363

Task: Indicate the recorded cytotoxicity at 10 µM value for this compound: CN1CC2(CCN(C(=O)c3ccc4nccnc4c3)CC2)CC1=O
Output: -1.7

Task: Indicate the recorded cytotoxicity at 10 µM value for this compound: C1CN(CC2CCOCC2)Cc2c(CN3CCOCC3)nnn2C1
Output: -143

Task: Indicate the recorded cytotoxicity at 10 µM value for this compound: CN(C(=O)NCc1nccn1Cc1ccccc1)C1CC1
Output: -2.22

Task: Indicate the recorded cytotoxicity at 10 µM value for this compound: CC(C)(NCc1cccc(C#N)c1)c1ccc2c(c1)OCO2
Output: 3.34

Task: Indicate the recorded cytotoxicity at 10 µM value for this compound: Cc1cc(C(=O)N2CCc3[nH]nc(-c4ccc5c(c4)OCO5)c3C2)no1
Output: -137

Task: Indicate the recorded cytotoxicity at 10 µM value for this compound: Cc1cc(=O)n(CC(=O)Nc2ccc(Cl)cc2)nc1C
Output: -1.74

Task: Indicate the recorded cytotoxicity at 10 µM value for this compound: CC(C)OCCC(=O)NCC(O)c1c(F)cccc1F (centres undefined)
Output: -6.51

Task: Indicate the recorded cytotoxicity at 10 µM value for this compound: CC(C(=O)Nc1ccc(Cl)cn1)N1CCc2nn(C)c(=O)cc2C1 (centres undefined)
Output: 4.81

Task: Indicate the recorded cytotoxicity at 10 µM value for this compound: CN(C)c1cnn(CC(=O)N2CCN(Cc3cccs3)CC2)c(=O)c1
Output: 1.72

Task: Indicate the recorded cytotoxicity at 10 µM value for this compound: O=S(=O)(NCC(O)c1cccs1)c1ccccc1Cl (centres undefined)
Output: -67

Task: Indicate the recorded cytotoxicity at 10 µM value for this compound: CCc1nc(CN2CCCN(CC(=O)N3CCOCC3)CC2)no1
Output: -10.2

Task: Indicate the recorded cytotoxicity at 10 µM value for this compound: CC(C)(C)c1ncc2c(n1)CN(C(=O)C(C)(C)n1cccc1)C2
Output: -120
